Read-out: Monocyte Chemoattractant Protein-1 (MCP1), CCL2 (gene 6347)
Assay: BSK_hDFCGF_MCP1: BioMAP Diversity Plus: hDFCGF Assay for Monocyte Chemoattractant Protein-1 (MCP1) Biomarker Activity (AID 2284285)
Details: primary human foreskin fibroblasts
Calls of active or inactive are those of the source. The calls were made as follows: active = hit-call score of the fitted dose curve at least 0.9, where 1 is the maximum; inactive = score below 0.9.

Compound	outcome
O=C(O)C(F)(F)C(F)(F)C(F)(F)C(F)(F)C(=O)O	inactive
Nc1nc(N)nc(-c2ccccc2)n1	inactive
CCCC(C)C(=O)OCC (centres undefined)	inactive
Oc1ccccc1Cc1ccccc1O	inactive

* * *

Assay: BSK_3C_SRB: Viability Assessment in the BioMAP Diversity Plus: 3C Assay (AID 2283023);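 also: cells read 24 h after compound dosing; fitted both ways against DMSO so a hit may be signal rise or drop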
Conditions: primary human endothelial cells (HUVEC)
Activity calls are given as the source filed them. Rule for the calls: active = hit-call score of the fitted dose curve at least 0.9, where 1 is the maximum; inactive = score below 0.9.
Hi there, use one of these labels in your reply, thanks! 1 (yes) = active, 0 (no) = inactive

// known answers, use as guide
Molecule	Label
O=C(Oc1ccccc1)c1ccccc1C(=O)Oc1ccccc1	1 (yes)
CC/C=C\C/C=C\C/C=C\CCCCCCCC(=O)OC	1 (yes)
CC(C)CCCCCOC(=O)CS	0 (no)

stdin: Dear all, I need the recorded test outcome for C=CC(=O)NC(C)(C)C , thank you.
stdout: 0 (no)

stdin: Dear all, I need the recorded test outcome for CC1=CC=C(C(C)C)CC1 , thank you.
stdout: 0 (no)

stdin: Dear all, I need the recorded test outcome for CCCCCCCCCCCC(C)=O , thank you.
stdout: 1 (yes)

stdin: Dear all, I need the recorded test outcome for CCCCC1C(=O)N(c2ccccc2)N(c2ccccc2)C1=O , thank you.
stdout: 0 (no)

stdin: Dear all, I need the recorded test outcome for CC/C=C\CCOC(=O)c1ccccc1O , thank you.
stdout: 1 (yes)

stdin: Dear all, I need the recorded test outcome for COc1ccc(C(=O)c2ccccc2)c(O)c1 , thank you.
stdout: 1 (yes)

stdin: Dear all, I need the recorded test outcome for COC(OC)(C(=O)c1ccccc1)c1ccccc1 , thank you.
stdout: 0 (no)

stdin: Dear all, I need the recorded test outcome for CCCCCC1=CCCC1=O , thank you.
stdout: 0 (no)

stdin: Dear all, I need the recorded test outcome for CCOC(=O)C1=NN(c2ccc(Cl)cc2Cl)C(C)(C(=O)OCC)C1 (centres undefined) , thank you.
stdout: 1 (yes)

* * *

Biological target: AR (gene 367) (UniProt P10275)
Sequence (P10275 whole entry, looked up): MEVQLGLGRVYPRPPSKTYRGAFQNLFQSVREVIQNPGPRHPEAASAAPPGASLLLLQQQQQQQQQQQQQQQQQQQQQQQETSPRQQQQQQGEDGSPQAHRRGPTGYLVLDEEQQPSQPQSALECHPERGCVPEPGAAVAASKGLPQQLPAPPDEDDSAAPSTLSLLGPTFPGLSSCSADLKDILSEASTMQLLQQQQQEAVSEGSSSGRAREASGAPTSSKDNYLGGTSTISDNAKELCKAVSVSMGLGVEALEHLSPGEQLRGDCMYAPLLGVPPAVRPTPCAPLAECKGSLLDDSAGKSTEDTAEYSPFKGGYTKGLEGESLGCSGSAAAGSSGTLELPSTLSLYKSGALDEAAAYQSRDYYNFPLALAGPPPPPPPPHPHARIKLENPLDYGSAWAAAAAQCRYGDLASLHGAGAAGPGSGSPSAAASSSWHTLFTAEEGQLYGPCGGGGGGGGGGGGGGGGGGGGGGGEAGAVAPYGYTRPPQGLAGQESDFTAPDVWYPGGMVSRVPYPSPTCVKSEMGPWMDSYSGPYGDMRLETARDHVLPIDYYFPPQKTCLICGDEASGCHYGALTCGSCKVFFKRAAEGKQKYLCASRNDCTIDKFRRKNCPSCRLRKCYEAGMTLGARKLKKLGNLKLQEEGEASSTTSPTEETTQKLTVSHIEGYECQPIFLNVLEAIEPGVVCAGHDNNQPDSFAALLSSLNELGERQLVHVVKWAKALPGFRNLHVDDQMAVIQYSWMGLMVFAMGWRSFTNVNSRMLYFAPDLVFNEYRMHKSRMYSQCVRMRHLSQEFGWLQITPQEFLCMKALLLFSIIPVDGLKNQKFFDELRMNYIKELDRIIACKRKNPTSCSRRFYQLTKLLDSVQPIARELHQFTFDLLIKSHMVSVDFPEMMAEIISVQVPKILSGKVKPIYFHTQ
Experiment: ACEA_AR_antagonist_80hr: ACEA Biosciences xCELLigence Real-Time Cell Analysis on Androgen Receptor Antagonism for Proliferation (AID 2283787);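 also: 22Rv1 human prostate cancer cells with growth followed by electrical impedance; hits lower the impedance growth signal relative to DMSO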
Results filed as inconclusive are left out. Activity calls are given as the source filed them. Rule for the calls: active = hit-call score of the fitted dose curve at least 0.9, where 1 is the maximum; inconclusive = response in the unintended direction; inactive = score below 0.9.
Hi there, use one of these labels in your reply, thanks! active, inactive

Cc1c(C(=O)c2c[nH]n(C)c2=O)ccc(S(C)(=O)=O)c1C1=NOCC1 inactive
COc1ccc(C(=O)c2ccccc2)c(O)c1 inactive
CCCCCCCCCC(C)=O inactive
N#Cc1ccc(C(c2ccc(C#N)cc2)n2cncn2)cc1 inactive
Oc1ccc(-c2ccccc2)c(Cl)c1 active
O=C(O)c1ccc2c(c1)C(=O)OC2=O inactive

Query compound follows.
stdin: Dear all, I need the recorded test outcome for CC(=O)OCc1ccccc1 , thank you.
stdout: inactive

* * *

Experiment: ACEA_AR_antagonist_AUC_viability: ACEA Biosciences xCELLigence Real-Time Cell Analysis on Androgen Receptor Antagonism for Viability (AID 2283776);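 also: 22Rv1 human prostate cancer cells growing on impedance electrode plates; area under impedance growth curve at 80 h after dosing as viability; hits lower the growth signal relative to DMSO meaning cytotoxicity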
Records with an inconclusive call do not appear. Activity calls are given as the source filed them. How the source made its calls: active means hit-call score of the fitted dose curve at least 0.9, where 1 is the maximum; inconclusive means response in the unintended direction; inactive means score below 0.9.
Value Kind: AC50

Molecule	Value Kind	Endpoint Result
O=C(O)c1cc(O)c2ccccc2c1O	AC50	inactive
CCCCCCCCCC(C)=O	AC50	inactive
CCCCNS(=O)(=O)c1ccccc1	AC50	inactive
CC(C)=CCCC(C)=CC#N	AC50	inactive
C[Si](C)(C)N[Si](C)(C)C	AC50	inactive
CCCCCCCCC(CO)CCCCCC (stereo not drawn)	AC50	inactive
CN(C)c1ccc2nc3ccc(=[N+](C)C)cc-3sc2c1	AC50	9.9 µM (active)
CCCCCCOC(=O)CCCCC(=O)OCCCCCC	AC50	inactive
CCCCCCCCCC[N+](C)(CCCCCCCCCC)CCC[Si](OC)(OC)OC	AC50	16.1 µM (active)
CCc1occc(=O)c1O	AC50	inactive

stdin: Please supply the value of reported AC50 for the item C=C[C@@]1(C)CC(=O)[C@]2(O)[C@@]3(C)[C@@H](O)CCC(C)(C)[C@@H]3[C@H](O)[C@H](OC(C)=O)[C@@]2(C)O1
stdout: inactive

stdin: Please supply the value of reported AC50 for the item CCC[Si](OC)(OC)OC
stdout: inactive

stdin: Please supply the value of reported AC50 for the item CC(C)(C)C1CCC(=O)CC1
stdout: inactive
